Let's look at some binders and their measured Kd.
# targetSystem: T1, MICB005-ECD-HISAvi (human, UniProt Q29980 24-309)
# T1 construct: Two sources under one name in the two kinetic assays; also called MICB005 polypeptide
# T1 sequence: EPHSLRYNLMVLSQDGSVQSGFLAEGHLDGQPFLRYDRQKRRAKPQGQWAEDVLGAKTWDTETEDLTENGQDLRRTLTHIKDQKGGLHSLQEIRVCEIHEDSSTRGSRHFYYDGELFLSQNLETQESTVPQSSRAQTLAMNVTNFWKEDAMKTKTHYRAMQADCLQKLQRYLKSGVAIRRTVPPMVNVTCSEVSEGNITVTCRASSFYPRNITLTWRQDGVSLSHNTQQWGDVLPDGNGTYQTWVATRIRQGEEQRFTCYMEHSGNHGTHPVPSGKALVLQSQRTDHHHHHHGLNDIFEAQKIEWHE
# measurementProtocol: SPR (Carterra); antibody captured by anti-human Fc, monomeric ECD antigen injected;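 also: dissociation phase followed for about 10 min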
Expressed in nM, but write only the number.

#34 (antibody, human IgG1, V domains shown, also called PL111H04; Hit ID 34) VH: QVQLKQSGPELVKPGASVKVSCKASGYAFTKYNIYWVKQSHGKSLEWIGYIDPYNGGTVQNQKFKGKATLTVDKSSSTAYMHLNSLTSEDSAVYYCATTDGYSLFTYWGQGTLVTVSS VL: DIVLTQSPTTMAASPGEKITITCSASSSISSNYLHWYQQKPGFSPKLLIYRTSNLASGVPARFSGSGSGTSYSLTIGTMEAEDVATYYCQQGSSIPFTFGSGTKLEIK
38

# evaluate next
Please fill in: Kd reported for 1D5 (antibody, human IgG1, kappa, V domains shown, also called ID5) VH: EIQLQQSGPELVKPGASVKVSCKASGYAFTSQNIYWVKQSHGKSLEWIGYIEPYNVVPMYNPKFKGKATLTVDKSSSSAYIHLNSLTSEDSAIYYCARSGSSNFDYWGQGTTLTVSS VL: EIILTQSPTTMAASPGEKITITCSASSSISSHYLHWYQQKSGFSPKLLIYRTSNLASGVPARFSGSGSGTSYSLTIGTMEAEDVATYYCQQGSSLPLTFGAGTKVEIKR = 2.3
